System: HCT-15
Recorded Endpoint: GI50 (µM)
# output: bare number, implied unit µM

Request: # value lookup — system HCT-15, readout GI50, item CO[C@]12CC(=O)C3(C(C[C@H]4CC5CC[C@H]6C[C@@H](OC(C)=O)CC[C@]6(OC(C)=O)C5C[C@@]43C)C1)C1C[C@H]3[C@@H]4CC[C@H]5C[C@@H](OC(C)=O)CC[C@]5(OC(C)=O)[C@H]4CC[C@]3(C)C12 (stereo partly drawn)
Response: 90.2

Request: # value lookup — system HCT-15, readout GI50, item COc1ccc(C(=O)C2=NON3OC23C(=O)c2ccc(OC)cc2)cc1 (stereo not drawn)
Response: 15.5

Request: # value lookup — system HCT-15, readout GI50, item "NC(=O)N/N=C(/Cc1nc2ccc(C(=O)c3ccccc3)cc2nc1O)C(=O)Nc1ccc(C(F)(F)F)cc1[N+](=O)[O-]"
Response: 50.7

Request: # value lookup — system HCT-15, readout GI50, item "O=C(/C=C/c1ccccc1O)c1ccccc1O"
Response: 35.9

* * *

Test system: NCI-H522
Assay: NCI tumour cell line growth inhibition, 48 h
The source made the active and inactive calls. No stated cut-off is given here; in the data, active = GI50 up to about 1.1 µM and inactive = higher.
// one of active, inactive, no free text

A selection of reference data follows.
Compound | Class Assignment
O=C(O)c1ccccc1CC1Cc2ccccc2C1=O (stereo not drawn) | inactive
CC1(C)OC(=O)C(=Cc2ccc(O)cc2)C(=O)O1 | inactive
Cc1ccc(/N=N/C(=N/NC(=O)c2ccccc2)c2ccc(N(CCC#N)CCC#N)cc2C)cc1 | inactive
CC(=O)OCC1OC(n2cc(I)c(=O)[nH]c2=O)C(OC(C)=O)C(OC(C)=O)C1OC(C)=O (stereo not drawn) | inactive
CN1C(=O)C2CCC(=O)N2c2cccnc21 (stereo not drawn) | inactive

Request: Recorded test call requested for "Cc1ccc(N(C=O)c2c([N+](=O)[O-])cc([N+](=O)[O-])c3c2=[N+]([O-])CN=3)cc1"
Response: inactive

Request: Recorded test call requested for COc1ccc(N2C(=O)C3C=CC(n4[nH]c(=O)n(Cc5ccccc5)c4=O)CC3C2=O)cc1 (stereo not drawn)
Response: inactive

Request: Recorded test call requested for O=C(c1ccc([N+](=O)[O-])cc1)C(Br)C(Br)c1ccnc2ccccc12 (stereo not drawn)
Response: inactive

Request: Recorded test call requested for Nc1cc2c(C3OC(CO)C(O)C3O)n[nH]c2c(=S)[nH]1 (stereo not drawn)
Response: inactive

* * *

GI50 values, listed per item
System: U-251
Test: NCI tumour cell line growth inhibition, 48 h
Active and inactive are the calls of the source. No stated cut-off is given here; in the data, active = GI50 up to about 1.1 µM and inactive = higher.

Compound | Result
O=c1nc2sc3ccc4ccccc4c3n2nc1O | 25.2 µM (inactive)
CC1=NN(C(=O)CC(=O)N(C(=O)c2ccccc2Cl)c2ccc(C)cc2)C(=O)C1/N=N/c1ccc([N+](=O)[O-])cc1 (stereo not given) | 19.6 µM (inactive)
CC(C)(C)NC(NC(C)(C)C)=C(C(Cl)=C(Cl)Cl)[N+](=O)[O-] | > 100 µM (inactive)

Request: Need GI50 of "CO[C@@H](c1ccccc1)[C@H](O)[C@@](O)(c1ccccc1)P(=O)(OC)OC" , thanks.
Response: > 100 µM (inactive)

Request: Need GI50 of "CCCCCN(CCCCC)C(=O)[C@H](CCC(=O)O)NC(=O)c1cc2ccccc2[nH]1" , thanks.
Response: 35.7 µM (inactive)

Request: Need GI50 of "COc1ccccc1NC(=O)C1=C(C)NC(C)=C(C(=O)Nc2ccccc2OC)C1c1ccco1" , thanks.
Response: 5.86 µM (inactive)

Request: Need GI50 of C=CCCCCCCCCCCCC1CCC(CC)N1 (stereo not given) , thanks.
Response: 10.9 µM (inactive)

Request: Need GI50 of "CCOC(=O)c1c(C)n(CCN2CCN(C)CC2)c2ccc(OC)cc12" , thanks.
Response: 31.8 µM (inactive)

Request: Need GI50 of CCCCCCCCCCCCCCCC(=O)OCC(COP(=O)(O)OCCNC(=O)CCSSc1ccccn1)OC(=O)CCCCCCCCCCCCCCC (stereo not given) , thanks.
Response: > 100 µM (inactive)

Request: Need GI50 of "O=C1c2ccccc2C(=O)c2c(NC(=O)C3CC3)ccc(NC(=O)C3CC3)c21" , thanks.
Response: 91.2 µM (inactive)

Request: Need GI50 of "C1CCC2(CC1)O[C@@H]1[C@@H](O2)[C@@H](O[C@H]2O[C@@H]3COC4(CCCCC4)O[C@H]3[C@@H]3OC4(CCCCC4)O[C@@H]23)O[C@@H]2COC3(CCCCC3)O[C@@H]12" , thanks.
Response: > 100 µM (inactive)

Request: Need GI50 of CCN(CC)CCCCC1CCN(CC(=O)N2c3ccccc3NC(=O)CC2C)CC1 (stereo not given) , thanks.
Response: > 100 µM (inactive)

Request: Need GI50 of "CCOc1ccc(NC(=O)CCc2nnc(SC)o2)cc1" , thanks.
Response: > 100 µM (inactive)

Request: Need GI50 of Cc1cc(Cl)cc2c1NC(=O)C2(O)CC(=O)c1ccc(F)cc1 (stereo not given) , thanks.
Response: 39 µM (inactive)

Request: Need GI50 of "CN1C(NCCO)=NS(=O)(=O)c2ccccc21" , thanks.
Response: > 100 µM (inactive)

Request: Need GI50 of "CC1(C)N=[N+]([O-])C1(C)C" , thanks.
Response: > 100 µM (inactive)

Request: Need GI50 of "COc1cc2c(c(C)c1O)[C@H]1COc3ccccc3[C@H]1O2" , thanks.
Response: > 10 µM (inactive)

* * *

GI50 values, listed per item
Test system: RXF 393
Experiment: NCI tumour cell line growth inhibition, 48 h
The source made the active and inactive calls. Cut-off read from the data, not from the text of the source: active = GI50 up to about 1.1 µM and inactive = higher.

Study these solved cases before continuing.
Molecule | Target System | Result
Nc1cc2c3c(c1)Oc1cc(N)cc4c1C3c1c(cc(N)cc1O4)O2 | RXF 393 | 12.3 µM (inactive)
CCCCOC(=O)C(=O)C(CCC(=O)c1ccc(C)cc1)C(=O)C=C(C)C (stereo unspecified) | RXF 393 | > 100 µM (inactive)
C[C@]12CC[C@@H]3c4cc(OCC(F)(F)F)c(O)cc4CC[C@H]3[C@@H]1CC[C@@H]2O | RXF 393 | 1.52 µM (inactive)
CN(C)Cc1cc(/N=N/c2ccc(Cl)c(Cl)c2)ccc1O | RXF 393 | 1.48 µM (inactive)
O=C(O)c1cc(O)nc(SCc2ccccc2)n1 | RXF 393 | > 100 µM (inactive)

Request: Need GI50 of C/C(=N\O)C(CN1CCCCC1)C(c1ccccc1)c1c(O)c2ccccc2oc1=O (stereo unspecified) , thanks.
Response: > 100 µM (inactive)

Request: Need GI50 of "N#CCC(=O)Nc1ccccc1O" , thanks.
Response: > 100 µM (inactive)

Request: Need GI50 of "CNC(=S)/C(=N\Nc1[nH]cnc1C(N)=O)C(N)=S" , thanks.
Response: > 100 µM (inactive)

Request: Need GI50 of C[C@]12CCC(=O)C=C1CC[C@@H]1[C@@H]2[C@@H](O)C[C@@]2(C)[C@H]1CC[C@]2(O)C(=O)CO [HYDROCORTISONE] , thanks.
Response: > 100 µM (inactive)

Request: Need GI50 of "O=C1OC(c2ccc(Cl)cc2)(c2ccc(Cl)cc2)c2c1ccc1ccccc21" , thanks.
Response: 20.9 µM (inactive)

Request: Need GI50 of "N#CC(C#N)=CNC(N)=S" , thanks.
Response: > 100 µM (inactive)

Request: Need GI50 of "Cc1nc2sccn2c1C(=O)N/N=C1\SCC(=O)N1C" , thanks.
Response: > 100 µM (inactive)

Request: Need GI50 of "CCOC(=O)c1csc(NC(=O)CCCC#N)n1" , thanks.
Response: > 100 µM (inactive)

Request: Need GI50 of "CNC(=S)NNc1ncnc2c1c(-c1ccc(Cl)cc1)cn2-c1ccc(C)cc1" , thanks.
Response: 16.4 µM (inactive)

Request: Need GI50 of "N#Cc1sc2c(c1OC(=O)c1ccc(Cl)cc1Cl)c(=O)n(-c1ccccc1)c(=S)n2-c1ccccc1" , thanks.
Response: 19.8 µM (inactive)

Request: Need GI50 of "COc1ccccc1NC(=O)C1=C(C)NC(C)=C(C(=O)Nc2ccccc2OC)C1c1ccco1" , thanks.
Response: 2.51 µM (inactive)

Request: Need GI50 of CCCCCCCC(CC(=O)NC(CO)C(=O)NC(CO)CC(C)C)OC(=O)CC(CCCCCCC)OC(=O)CC(CCCCCCC)OC1OC(C)C(O)C(OC2OC(C)C(O)C(O)C2OC(C)=O)C1O (stereo unspecified) , thanks.
Response: 2.14 µM (inactive)

Request: Need GI50 of "COc1ccc(/C(C)=C2\CCCN(Cc3ccccc3)C2)cc1" , thanks.
Response: 18.6 µM (inactive)

Request: Need GI50 of "OCc1ccc2c(c1)CC1(Cc3ccccc3C1)C2" , thanks.
Response: 15.7 µM (inactive)

Request: Need GI50 of "C/C=C/C(=O)N1C(=O)OC[C@@H]1c1ccccc1" , thanks.
Response: 18.5 µM (inactive)

Request: Need GI50 of "CC1=CC(C)(C)Nc2ccc(CSc3ccccc3)cc21" , thanks.
Response: 16.3 µM (inactive)
